Provenance of the data: PubChem BioAssay AID588843

- Tested on: ldlA CHO mSR-BI C384S, [3H]cholesterol efflux to HDL
- Assay Notes: cholesterol efflux inhibition via mutant SR-BI C384S, mechanism study for SR-BI HDL uptake inhibitor project, cell-based, ldlA CHO, [3H]cholesterol, single point, dry powder (AID 588843)
- Setup Conditions: at 1 µM
Records with an inconclusive call do not appear. The source made the active and inactive calls. No rule for the calls is given here.
Respond using exactly one of the listed classes: y = active, n = inactive

# count of solved cases: 2
- Compound: "COc1cccc(-c2csc(N3CCN(C(=S)Nc4cccc(Cl)c4)CC3)n2)c1"
  Label: "n"
- Compound: "Cc1cc(C)n(CC(=O)NC2CCCc3c2cnn3-c2ccc(C)c(C)c2)n1 (centres undefined)"
  Label: "n"

// return assay outcome for O=C(Nc1cc(Cl)ccc1Cl)c1cc(Br)ccc1NS(=O)(=O)c1ccc(Cl)c([N+](=O)[O-])c1 n

Cool, now CCOc1ccccc1/C=C/c1onc(C)c1S(=O)(=O)N1CCC(C(=O)NC(C)(C)C)CC1 y

Subsequent entry: N#Cc1sc2nc(C3CC3)cc(-c3ccc(Cl)cc3)c2c1N y

Then what about the compound O=C(Nc1ccc(-c2nc3cc(NC(=O)c4ccccc4Cl)ccc3o2)cc1)c1ccccc1Cl ? y

* * *

- Test system: ldlA CHO mSR-BI C384S, [3H]cholesterol efflux to HDL
- Assay Notes: cholesterol efflux inhibition via mutant SR-BI C384S, mechanism study for SR-BI HDL uptake inhibitor project, cell-based, ldlA CHO, [3H]cholesterol, single point, dry powder (AID 588843)
- Setup Conditions: at 1 µM
Inconclusive results are not listed. Calls of active or inactive are those of the source. No rule for the calls is given here.
Answer with one of the outcomes given here: 1.0 for active, 0.0 for inactive

Answered cases to consult:
- Compound: "COc1ccc(-c2nnn(CC(=O)N(C3CCCCC3)C(C)C(=O)NC3CCCC3)n2)cc1OC (stereo not drawn)"
  Label: 1.0
- Compound: "COc1ccc(OC)c(CCNC(=O)c2ccc3c(c2)N(Cc2ccc(F)cc2)CCS3)c1"
  Label: 0.0
- Compound: "Cc1cc(C(=O)C(C)OC(=O)C2=NNC(=O)CC2)c(C)n1-c1ccc(OC(F)F)cc1 (stereo not drawn)"
  Label: 0.0
- Compound: "CCC(=O)N1CCc2cc(-c3csc(NC(=O)c4ccco4)n3)ccc21"
  Label: 1.0
- Compound: "CCn1c(COc2c(C)cccc2C)nnc1SCC(=O)N1CCN(c2ccccc2)CC1"
  Label: 0.0

Any idea what this test logged for CC(OC(=O)c1cccc(NS(C)(=O)=O)c1)C(=O)Nc1ccc(N2CCOCC2)cc1 (stereo not drawn) ? 1.0

Again, but for O=C(Nc1cccc(NC(=O)c2cc([N+](=O)[O-])ccc2Cl)n1)c1cc([N+](=O)[O-])ccc1Cl 1.0

Would you mind doing Cc1ccc2oc(-c3cccc(NC(=O)c4cc(-n5cnnc5)ccc4Cl)c3)nc2c1 as well? 0.0

Then O=C(Nc1ccc(Cl)cc1C(=O)c1ccc(Cl)cc1)c1cc(Br)ccc1NS(=O)(=O)c1ccc(Cl)cc1 ? 0.0

Try this compound too: CCOc1ccc(NC(=O)CN2CCN(CC(=O)Nc3cc(OC)cc(OC)c3)CC2)cc1 0.0

And then COc1ccc([C@H]2CC(=O)C=C(c3cccc4c3sc3ccccc34)C2)cc1OC , what is it? 0.0

Next up: O=C(Nc1cc(C(F)(F)F)ccc1Cl)c1ccccc1NS(=O)(=O)c1ccc(Cl)cc1 0.0

Please give the result for Cc1ccccc1NC(=O)NCC1CCN(c2ccc(S(=O)(=O)N3CCOCC3)cc2)CC1 too. 0.0
